Hey, just so you know, these numbers are from PubChem BioAssay (NCI).

tested on: OVCAR-4 ovarian; experiment: NCI tumour cell line growth inhibition, 48 h
Examples of compounds with documented GI50 follow.

In: Which GI50 is listed for Cn1c(-c2ccncc2)c(-c2ccc(F)cc2)c2ncccc21 ?
Out: > 25 µM

In: Which GI50 is listed for Nc1c(C(=O)c2cccc(OC[C@@H](O)CO)c2)cnn1-c1ccc(F)cc1 ?
Out: > 20.9 µM

In: Which GI50 is listed for C[CH2][Sn]([CH2]C)([O]C(=O)c1c(F)cccc1F)[O][Sn]([CH2]C)([CH2]C)[O]C(=O)c1c(F)cccc1F ?
Out: 18.8 µM

In: Which GI50 is listed for COc1cc(-c2nn(-c3cccc(NC(=O)Nc4cccc(C(F)(F)F)c4)c3)cc2-c2ccncc2)ccc1Cl ?
Out: 0.996 µM

In: Which GI50 is listed for CC(C)N(CCCNC(=O)Nc1ccc(C(C)(C)C)cc1)C[C@H]1O[C@@H](n2ccc3c(N)ncnc32)[C@H](O)[C@@H]1O ?
Out: > 100 µM

In: Which GI50 is listed for COc1cc2c3c(n(CCCNC4=NCCS4)c(=O)c2cc1OC)-c1cc2c(cc1C3=O)OCO2 ?
Out: 1.82 µM

New cases:
In: Which GI50 is listed for Nc1nc2cc(O)ccc2n2cc3c(F)cccc3c12 ?
Out: 6.81 µM

In: Which GI50 is listed for COc1cc(/C=C2\C(=O)Nc3ccccc32)cc(OC)c1O ?
Out: 4.95 µM

In: Which GI50 is listed for Cc1cc(Cl)ccc1OCc1nn2c(CCCCc3nnc4sc(COc5ccc(Cl)cc5C)nn34)nnc2s1 ?
Out: 21.2 µM

---

Examples of compounds with documented TGI follow.
system: MCF7 breast; assay: NCI tumour cell line growth inhibition, 48 h

Use the examples below as a reference point.
In: Which TGI is listed for Nc1nc2cc(O)ccc2n2cc3c(F)cccc3c12 ?
Out: > 100 µM

In: Which TGI is listed for C=C1C(O)C2C(=C(CCC3CC3)C13CC3)C(=O)C(C)(C)C2O (stereo unspecified) ?
Out: > 100 µM

In: Which TGI is listed for COc1cc(C(=O)N(C)N(C)C)cc(OC)c1OC ?
Out: > 10 µM

In: Which TGI is listed for Cc1ccc(C(=O)Nc2ccc(S(=O)(=O)O)c3cc(S(=O)(=O)O)cc(S(=O)(=O)O)c23)cc1N ?
Out: > 100 µM

In: Which TGI is listed for O=C(CN(/C=C/C(=O)C(F)(F)F)c1ccc(Cl)cc1)c1ccc(F)cc1 ?
Out: 33.2 µM

In: Which TGI is listed for Cc1cc(=O)n2nnc3c4ccccc4ccc3n12 ?
Out: 10.5 µM

In: Which TGI is listed for N#C/C(=C\c1ccc(Br)cc1)n1nnc2c(F)cccc21 ?
Out: > 100 µM

In: Which TGI is listed for O=c1c(=O)c2cscc2c1=O ?
Out: 15.3 µM

New cases:
In: Which TGI is listed for Cc1ccc(C2=NN(c3ccc(S(C)(=O)=O)cc3)C(=O)CC2)cc1 ?
Out: > 100 µM

In: Which TGI is listed for C=C(C(=O)OC)N1C(=O)CC(C)C1=O (stereo unspecified) ?
Out: 30.5 µM

In: Which TGI is listed for O=C(O)c1ccc(NCc2nc3cc(Cl)c(Cl)cc3[nH]2)cc1 ?
Out: > 100 µM
